Overview of reported Percent Effect across a group of molecules:
measurement-target: AMP-activated protein kinase, AMPK (Homo sapiens) (UniProt P54646+O43741+P54619+Q9UGJ0+Q9Y478+Q13131+Q9UGI9)
protocol-details: AMP-dependent Kinase enzyme assay. An in vitro enzyme assay that detects ADP turnover that is directly proportional to AMPK activity. This uses naive AMPK that is activated during the assay with MK-8722
Format: functional
Parameters: scale not given: direction of the effect not stated beside the values
protocol-conditions: 30 µM

molecule	Percent Effect (%)
COCCN1C[C@@H]2CN(c3ncccn3)C[C@@H]2C1=O	0.915
O=C(c1n[nH]c2c1CCN(Cc1nccs1)C2)N1CCCC1	-4.39
c1coc(-c2nnc(CN3CCCC(CN4CCCCCC4)C3)o2)c1 (stereo not given)	0.651
c1ccc(Cn2cncn2)c(CNCC2CNc3ccnn3C2)c1 (stereo not given)	-8.08
Cc1ccc(C(NC(=O)[C@H]2CC[C@@H](O)CC2)c2cccnc2)cc1C (stereo not given in full)	2.02
CN(CC(=O)N1CCC(C(O)c2ccccc2)CC1)c1cnccn1 (stereo not given)	-0.406
C=Cc1ccc(C(=O)N2CCCC(Nc3ccc(F)cc3)C2)cc1 (stereo not given)	2.02
Cn1cc(Br)c(=O)c(NS(=O)(=O)c2cc(F)ccc2Cl)c1	-8.02
O=S(=O)(Nc1cnn(C2CCOCC2)c1)c1ccc(F)c(F)c1	-3.09
CC1c2ncc(CN3CCN(C)CC3)n2CCN1CC1CC1 (stereo not given)	-6.67
CS(=O)(=O)NCC1CCCN(C(=O)Nc2ccccc2Cl)C1 (stereo not given)	8.6
Cc1c[nH]c(CN(C)C(=O)c2cccc(CCC(C)(C)O)c2)n1	-4.37
Cc1nc(NC(=O)CN2CCc3c(nc(C(C)C)n3C)C2)sc1C	-2.02
CN(CCO)Cc1nnc(C2CCN(C(=O)c3cccnc3)CC2)n1C	-6.42
CC(NC(=O)NCc1ccc(Cl)s1)c1ccccn1 (stereo not given)	6.06

* * *

Species: Homo sapiens
protocol-details: To identify inhibition of the IFN signalling (Jak-Stat) pathway via expression of an eGFP reporter gene under the control of an IFN-stimulated response element (ISRE) containing MxA promoter.
Type: functional
Design: scale not given: direction of the effect not stated beside the values
protocol-conditions: 30 µM
Criterion: Percent Effect strictly under 10%. Met: Criterion met. Not met: Criterion not met.

compound	qualitative-label
Cc1cc(C2CCCN(C(=O)c3cnccn3)C2)ccn1 (stereo not drawn)	Criterion not met
COc1cccc(N2CCN(C(=O)[C@H](O)C3CCCCC3)CC2=O)c1	Criterion met
Cc1ccn2cc(C(=O)N3CCCC3c3c(C)nn(C)c3C)nc2c1 (stereo not drawn)	Criterion met
c1cc(CN2Cc3nnn(CC4CC4)c3C(COCC3CC3)C2)co1 (stereo not drawn)	Criterion met
CN(Cc1cc(-c2ccccc2)no1)C1CCCN(c2cccnn2)C1 (stereo not drawn)	Criterion met
Cc1ccc(C(=O)NC(C)CN2CCCC2=O)c(=O)[nH]1 (stereo not drawn)	Criterion not met
CC(NC(=O)N(C)Cc1ccsc1)c1ccc2c(c1)NC(=O)CO2 (stereo not drawn)	Criterion met
O=C1NCC[C@]12CN(Cc1ccoc1)C[C@H]2c1ccccc1	Criterion not met
Cc1ncccc1OC1(C(=O)NCCNc2ccccc2)CCNCC1	Criterion not met
O=C(Cn1cccnc1=O)NCCc1ccc2c(c1)OCCO2	Criterion met
CCn1ccnc1CN1CCN(CC(O)Cn2cccn2)CC1 (stereo not drawn)	Criterion not met
CC(C)c1cc(NC(=O)CN2CCc3cncnc3C2)on1	Criterion met
COc1c(C2CCCN2C(=O)c2cccc(C(N)=O)c2)c(C)nn1C (stereo not drawn)	Criterion not met
Cc1noc(C)c1CN1CCN(Cc2ccncc2)c2ncccc2C1	Criterion not met
COCCN1CCC(CN(CC2CCCO2)C(=O)CCNC(C)=O)CC1 (stereo not drawn)	Criterion met
Cn1ncc2c(N3CCN(C(N)=O)CC3)nc(C3CCCC3)nc21	Criterion not met
CN(C)C(=O)[C@@H]1C[C@@H]2CCN(Cc3ccc4c(c3)OCO4)C[C@@H]2O1	Criterion met
CC(C)NC(=O)C1CN(C(=O)Nc2ccccc2)CC12CCOCC2 (stereo not drawn)	Criterion not met

* * *

measurement-target: Arginase-2, mitochondrial (Homo sapiens) (UniProt P78540)
Sequence (P78540 whole entry): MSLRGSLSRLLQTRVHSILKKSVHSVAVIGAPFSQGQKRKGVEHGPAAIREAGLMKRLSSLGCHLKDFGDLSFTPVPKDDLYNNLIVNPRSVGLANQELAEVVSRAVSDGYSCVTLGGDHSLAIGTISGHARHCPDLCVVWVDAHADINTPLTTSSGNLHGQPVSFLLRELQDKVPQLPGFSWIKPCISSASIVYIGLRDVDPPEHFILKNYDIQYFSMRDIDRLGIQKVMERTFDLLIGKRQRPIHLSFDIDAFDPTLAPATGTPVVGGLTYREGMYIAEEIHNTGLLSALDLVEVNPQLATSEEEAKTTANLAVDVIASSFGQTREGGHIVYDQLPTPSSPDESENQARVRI
protocol-details: in vitro enzyme assay to detect the production of urea directly proportional to the activity of Arginase II; note: in the data most compounds retested in dose-response had high values
Assay type: functional
Design: scale not given: direction of the effect not stated beside the values
protocol-conditions: 33.3 µM
Overview of reported Percent Effect across a group of compounds:

compound	Percent Effect, %
COc1c(CNCc2cccc(CN(C)C)c2)c(C)nn1C	-4.01
Cn1cc(C2CCCN2Cc2csc(-c3ccsc3)n2)cn1 (stereo unspecified)	0.76
COc1cccc(CN(C)Cc2ccc(C#N)cc2)c1OC	-1.67
Cc1cc(C(=O)O)cc(S(=O)(=O)Nc2ccc3c(c2)OCO3)c1C	3.69
CN(C)C(=O)C1CN(Cc2ccccc2)CCN(S(C)(=O)=O)C1 (stereo unspecified)	-3.02
Fc1cnc(N2CCOC3(CCN(Cc4ccsc4)CC3)C2)nc1	6.88
Cc1occc1C(=O)N1CCC2(CCC(C(=O)NCC3CC3)O2)CC1 (stereo unspecified)	1.83
CCc1n[nH]c(C2CN(C(=O)c3ccsc3)CCO2)n1 (stereo unspecified)	4.84
c1csc(-c2nc(CNC3CCc4ncnn4C3)cs2)c1 (stereo unspecified)	2.05
COC(=O)c1sccc1NC(=O)C1CCCN1C(=O)c1ccco1 (stereo unspecified)	-3.53
COc1ccc(F)cc1C(C)NC(=O)c1nnc(C)s1 (stereo unspecified)	0.248
Cc1cccc(CNC(=O)CNc2cc(CO)ccc2Cl)c1	1.18
Cc1nn(C(C)C)c(C)c1NC(=O)c1ccccc1	-2.4
CN(Cc1ccc(F)cc1)CC1(O)CCN(C(=O)c2ccccc2)C1 (stereo unspecified)	1.16
CCc1nccn1C1CCCN(C(=O)c2cnn(C)c2C2CC2)C1 (stereo unspecified)	-4.41
CN(C)C(=O)CN1CCCCC1c1nc(N)ncc1-c1cccc(F)c1 (stereo unspecified)	-4.43
c1ccc(C(OCCNC2CCc3ncnn3C2)c2ccccc2)cc1 (stereo unspecified)	-4.3
CCOC1CCCN(C(=O)NCCc2ccn(-c3ccccc3)n2)C1 (stereo unspecified)	-2.74
CCc1nc(CC(=O)Nc2cnn(CC3CCCO3)c2)cs1 (stereo unspecified)	-1.43
COc1cc(C(C)=O)ccc1OCC(=O)N(C)Cc1cnn(C)c1	1.44
Cn1nnc2c1CCN(Cc1ccccc1)C2COCC1CC1 (stereo unspecified)	2.1
Cc1cn2nc(N3CCCC3Cn3nc(C)cc3C)sc2n1 (stereo unspecified)	-0.645
Cc1cnn(CC2CCCN2Cc2nnc(Cc3ccccc3)o2)c1 (stereo unspecified)	6.81
c1ccc(N2CCOC3(CCCN(c4nncs4)C3)C2)nc1 (stereo unspecified)	3.23
CC1(C)CN(C(=O)NCCc2ccn(-c3ccccc3)n2)CCO1	4
CCc1nc(CNCC2CCCN2c2cc(NC)ncn2)cs1 (stereo unspecified)	1.64

* * *

Overview of reported Percent Effect across a group of compounds:
measurement-target: Chromo domain-containing protein 1 (Saccharomyces cerevisiae (strain ATCC 204508 / S288c) (Baker's yeast)) (UniProt P32657)
Sequence (P32657 whole entry, the tested form may be a part): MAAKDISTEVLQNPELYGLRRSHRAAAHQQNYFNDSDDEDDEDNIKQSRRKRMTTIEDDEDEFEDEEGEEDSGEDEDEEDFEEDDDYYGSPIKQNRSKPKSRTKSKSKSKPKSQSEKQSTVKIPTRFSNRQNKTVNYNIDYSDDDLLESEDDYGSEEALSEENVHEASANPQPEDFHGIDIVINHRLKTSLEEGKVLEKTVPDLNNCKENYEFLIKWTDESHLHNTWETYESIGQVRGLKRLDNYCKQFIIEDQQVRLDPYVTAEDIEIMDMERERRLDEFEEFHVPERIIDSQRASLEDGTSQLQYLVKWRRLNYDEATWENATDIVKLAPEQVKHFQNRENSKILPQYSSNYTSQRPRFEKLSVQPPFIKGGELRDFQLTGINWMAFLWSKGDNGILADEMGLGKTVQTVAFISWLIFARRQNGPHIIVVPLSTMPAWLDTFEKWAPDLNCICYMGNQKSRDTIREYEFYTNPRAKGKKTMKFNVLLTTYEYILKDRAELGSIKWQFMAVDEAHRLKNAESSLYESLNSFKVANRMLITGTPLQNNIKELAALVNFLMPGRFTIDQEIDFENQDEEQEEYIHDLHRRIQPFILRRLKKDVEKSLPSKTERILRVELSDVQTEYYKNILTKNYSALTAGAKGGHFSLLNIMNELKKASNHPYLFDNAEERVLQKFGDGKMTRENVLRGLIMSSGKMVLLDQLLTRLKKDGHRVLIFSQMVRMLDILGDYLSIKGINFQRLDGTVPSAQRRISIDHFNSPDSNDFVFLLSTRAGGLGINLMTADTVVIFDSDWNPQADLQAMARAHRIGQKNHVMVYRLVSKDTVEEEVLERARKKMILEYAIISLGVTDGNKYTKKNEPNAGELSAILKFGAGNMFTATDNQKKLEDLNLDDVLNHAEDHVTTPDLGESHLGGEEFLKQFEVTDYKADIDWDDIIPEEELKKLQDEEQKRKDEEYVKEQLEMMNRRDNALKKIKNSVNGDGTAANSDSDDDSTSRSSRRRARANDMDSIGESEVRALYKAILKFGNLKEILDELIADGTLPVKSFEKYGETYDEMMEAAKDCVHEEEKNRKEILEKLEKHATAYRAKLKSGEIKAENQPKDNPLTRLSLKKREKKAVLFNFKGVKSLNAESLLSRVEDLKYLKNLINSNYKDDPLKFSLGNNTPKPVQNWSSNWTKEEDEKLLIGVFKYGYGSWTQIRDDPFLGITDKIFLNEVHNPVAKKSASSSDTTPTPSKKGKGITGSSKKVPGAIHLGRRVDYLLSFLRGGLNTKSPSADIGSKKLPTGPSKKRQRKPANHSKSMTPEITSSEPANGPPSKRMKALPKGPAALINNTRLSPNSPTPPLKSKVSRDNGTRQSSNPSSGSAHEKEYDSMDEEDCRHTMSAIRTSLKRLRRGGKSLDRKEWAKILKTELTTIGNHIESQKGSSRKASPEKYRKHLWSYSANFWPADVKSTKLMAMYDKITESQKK
protocol-details: ScCHD-1 Enzyme Inhibition Assay; note: in the data most compounds retested in dose-response had high values
Type: functional
Design: scale not given: direction of the effect not stated beside the values
protocol-conditions: 30 µM
readout-kind: Percent Effect (%)

compound	observed-value
COc1cccc2c1OCC(C(=O)N1CCN(S(C)(=O)=O)CC1)C2 (stereo not drawn)	-8.92
CC(=O)Nc1c(C)cnn1Cc1cc(F)ccc1F	-0.196
N#CC1(C(=O)NCCCNc2ccc(C(F)(F)F)cn2)CCCC1	-0.995

* * *

measurement-target: Protein translocase subunit SecA (Escherichia coli (strain K12))
protocol-details: Assay to Identify E. coli SecA ATPase Inhibitors
Format: functional
Set-up: scale not given: direction of the effect not stated beside the values
protocol-conditions: 30 µM
Entries with a potency or affinity are not part of this list.
Overview of reported Percent Effect across a group of compounds:

compound	measurement-units	Percent Effect
Cc1nc(CN2CCCC(NCc3ccsc3)C2)no1 (centres undefined)	%	1.07
COc1cccc(-c2nccnc2C2CCN(C(C)=O)CC2)c1	%	-1.31
Cc1cc(C(=O)N2CCC(c3nccn3CCCN(C)C)CC2)no1	%	1.38
O=C(COc1ccccc1)N1CCC[C@]2(C[C@H](OCC3CC3)CO2)C1	%	-0.456
CN1CCC(Oc2ccc(NC(=O)c3cccc(Cl)c3)cc2)CC1	%	-5.92
Cc1nnc(NC(=O)NCc2cccnc2N(C)C)s1	%	-3.62
COCCN1C(=O)CCC12CCN(C(=O)CC1CC1)CC2	%	-0.652
O=C(C1=CCCCC1)N1CCC2(CC1)COC(COc1ccccn1)C2 (centres undefined)	%	-4.78
CN(Cc1ccc(F)cc1)CC1(O)CCN(C(=O)c2ccccc2)C1 (centres undefined)	%	-1.26
c1ccc(-n2ncc(CN3CCCC3Cn3cccn3)n2)cc1 (centres undefined)	%	-6.8
Cc1ccn(-c2ccccc2NCc2ccccn2)n1	%	-1.21
Cc1noc(C)c1CN(C)C(=O)NC1CCN(C2CC2)CC1	%	-1.46
CCOc1cc(/C=C/c2ncc(C(=O)O)s2)cc(Cl)c1OC	%	-1.71
Cc1ccc(NC2CCN(C(=O)Cn3nc(C)cc3C)CC2)nn1	%	-1.08
CC1CN(Cc2nccn2C)CCN1c1ccc2nncn2n1 (centres undefined)	%	-5.26
CN(C)CC1CN(c2ccc(C#N)cn2)CCO1 (centres undefined)	%	-4.87
CS(=O)(=O)Cc1cccc(C(=O)N2CCCC(n3cccn3)C2)c1 (centres undefined)	%	-3.02
COc1ccc(CN2CCN(C(C)=O)CC3(CC(=O)N(C)C3)C2)cc1 (centres undefined)	%	-0.72
CCC(=O)N1CCCC(c2cc(Nc3ncccn3)nc(C)n2)C1 (centres undefined)	%	-3.27
CC(C)c1cc(C(F)(F)F)n2nc(CCC(=O)O)nc2n1	%	1.24
Cc1cccc(CN2C(=O)CO[C@@H]3CN(CCO)C[C@H]32)c1	%	1.05
Cc1cnn(CCC(=O)N2CCN(c3ncccc3Cl)CC2)c1	%	-2.22
Cc1n[nH]c(=O)c2c(NC(=O)CN3CCCC(C(F)(F)F)C3)oc(C)c12 (centres undefined)	%	2.19
Cc1ccc(C(=O)NC(C)CN2CCCC2=O)c(=O)[nH]1 (centres undefined)	%	-6.8
Cn1ccc2ccnc(CC3CN(C(=O)C4CCC(F)(F)CC4)C3)c21	%	-2.7
Cc1ncc2c(n1)CN(CCCc1nc3ccccc3o1)CC2	%	-8.07
O=C(COc1coc(CN2CCCCC2)cc1=O)Nc1ccccc1Cl	%	-4.47
O=C(CCCOc1ccccc1Cl)N1CCCC(n2cncn2)C1 (centres undefined)	%	-2.02
CCN(Cc1cccc2c1OCO2)C(=O)NC1CC1	%	-0.28
